measured on: EP3 receptor (Homo sapiens, UniProt P43115)
Sequence (P43115 1-390): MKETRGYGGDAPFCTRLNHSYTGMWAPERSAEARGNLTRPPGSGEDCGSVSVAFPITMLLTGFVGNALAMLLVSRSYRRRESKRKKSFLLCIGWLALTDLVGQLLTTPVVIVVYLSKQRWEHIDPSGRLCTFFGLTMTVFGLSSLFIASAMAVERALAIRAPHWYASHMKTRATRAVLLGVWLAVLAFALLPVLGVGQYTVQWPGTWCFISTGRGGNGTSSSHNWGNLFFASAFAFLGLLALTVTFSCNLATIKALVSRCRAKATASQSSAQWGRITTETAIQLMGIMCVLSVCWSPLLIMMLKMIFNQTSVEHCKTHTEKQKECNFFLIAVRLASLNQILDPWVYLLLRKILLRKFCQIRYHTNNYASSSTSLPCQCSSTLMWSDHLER
assay procedure: CHO cell cAMP assay (forskolin and sulprostone stimulated, HTRF)
study conditions: CHO cells; sulprostone 700 nM (EC80) and FSK 2 μM (EC70), 37° C. for 30 minutes; read-out: CHO_cAMP IC50
# pIC50 listing for each entry below
In textbook form, pIC50 equals minus log to base ten of the concentration in mol/L.

Which value of pIC50 has been reported for CCn1ncc2c(F)cc(-c3ccc(C(CC)(CC)CC4CCNC4=O)c(=O)[nH]3)cc21 (stereo not shown) [compound 40] in the records?
7.36

Which value of pIC50 has been reported for CC(C)C(C(=O)NCCOCCN(C)C)c1ccc(-c2ccc3cccc(F)c3c2)[nH]c1=O (stereo not shown) [compound 233] in the records?
6.49

Which value of pIC50 has been reported for CC1(c2ccc(-c3ccc4ccccc4c3)[nH]c2=O)C(=O)Nc2nccn21 (stereo not shown) [compound 153] in the records?
6.40

Which value of pIC50 has been reported for CC(C)C(NS(=O)(=O)C1CCCCC1)c1ccc(-c2ccc3cccc(F)c3c2)[nH]c1=O (stereo not shown) [Compound #165] in the records?
6.60

Which value of pIC50 has been reported for CCn1ncc2c(F)cc(-c3ccc(C4(O)CCCN(S(=O)(=O)C(C)C)C4)c(=O)[nH]3)cc21 (stereo not shown) [compound 295] in the records?
7.10

Shift focus to the following entry.
Which value of pIC50 has been reported for CC(C)C(Cc1ccc(-c2ccc3cccc(F)c3c2)[nH]c1=O)C1OC(=O)NC1=O (stereo not shown) [Compound #308] in the records?
6.68

* * *

measured on: EP3 receptor (Homo sapiens)
Construct: purchased Millipore HTS092M
assay procedure: [3H]-PGE2 binding assay (EP3 competition binding)
study conditions: read-out: [3H]-PGE2 Binding Ki
observable: Ki (nM)
Report the value in nM with no unit label.

Record excerpt, results attached:
Which value of Ki has been reported for CC(=C1OC(=O)NC1=O)C(c1ccc(-c2ccc3cccc(F)c3c2)[nH]c1=O)C(C)C (stereo not shown) [compound 84] in the records?
7

Which value of Ki has been reported for CCn1ncc2c(F)cc(-c3ccc(C(CC)(CC)c4nnc(N)s4)c(=O)[nH]3)cc21 [Compound #52] in the records?
19

Which value of Ki has been reported for CCOC(=O)C(C1=CCCCC1)c1ccc(-c2ccc3ccccc3c2)[nH]c1=O (stereo not shown) [Compound #280] in the records?
76

Which value of Ki has been reported for CCn1ncc2c(F)cc(-c3ccc(C(CN4CCS(=O)(=O)CC4)C(C)C)c(=O)[nH]3)cc21 (stereo not shown) [Compound #133] in the records?
12

Which value of Ki has been reported for CC(C)C(/C=C1\OC(=O)NC1=O)c1ccc(-c2ccc3cccc(C#N)c3c2)[nH]c1=O (mixture of isomers) [compound 142] in the records?
121

Which value of Ki has been reported for CCn1ncc2c(F)cc(-c3ccc(C(CC)(CC)c4ncco4)c(=O)[nH]3)cc21 [Compound #30] in the records?
2

Which value of Ki has been reported for CCn1ncc2c(F)cc(-c3ccc(C4CCC5(CCNC5=O)CC4)c(=O)[nH]3)cc21 (stereo not shown) [compound 207] in the records?
15

Which value of Ki has been reported for CCn1ncc2c(F)cc(-c3ccc(C4CCC5(CC4)CCN(S(=O)(=O)C(C)C)CC5)c(=O)[nH]3)cc21 [compound 204] in the records?
12

Which value of Ki has been reported for CC(C)C(/C=C1\OC(=O)NC1=O)c1ccc(-c2ccc3c(ccn3C)c2)[nH]c1=O (stereo not shown) [compound 118] in the records?
44

Which value of Ki has been reported for CCn1ncc2c(F)cc(-c3ccc(C4CCN(S(=O)(=O)C(C)C)CC4)c(=O)[nH]3)cc21 [compound 198] in the records?
19

Continuing:
Which value of Ki has been reported for CCn1ncc2c(F)cc(-c3ccc(C4CC5CN(S(=O)(=O)C(C)C)CC5C4)c(=O)[nH]3)cc21 (stereo not shown) [compound 205] in the records?
51

Which value of Ki has been reported for NC(=O)C(C1=CCCCC1)c1ccc(-c2ccc3ccccc3c2)[nH]c1=O (stereo not shown) [compound 226] in the records?
186

Which value of Ki has been reported for O=C1NC(=O)C(Cc2ccc(-c3ccc4cccc(F)c4c3)[nH]c2=O)O1 (stereo not shown) [compound 252] in the records?
180

Which value of Ki has been reported for CCn1ncc2c(F)cc(-c3ccc(C4CCN(C(=O)CO)CC4)c(=O)[nH]3)cc21 [compound 197] in the records?
169
